Source listed as ChEMBL document CHEMBL1136471.

Method Summary: Binding constant towards cyclodextrin conjugated peptide (with pyrene) at 25 degrees Centigrade
Measured Property: Activity

# Compound, Measured Property, Assay Result
rows = [
    ("C[C@H](CCC(=O)O)[C@H]1CC[C@H]2[C@@H]3CC[C@@H]4C[C@H](O)CC[C@]4(C)[C@H]3CC[C@]12C", "Activity", "439000 Kb M-1"),
]

Lookup: Record request: Activity value, item C[C@H](CCC(=O)O)[C@H]1CC[C@H]2[C@@H]3[C@@H](O)C[C@@H]4C[C@H](O)CC[C@]4(C)[C@H]3CC[C@]12C
Found: 173000 Kb M-1

Lookup: Record request: Activity value, item C[C@H](CCC(=O)O)[C@H]1CC[C@H]2[C@@H]3C[C@H](O)[C@@H]4C[C@H](O)CC[C@]4(C)[C@H]3CC[C@]12C
Found: 210000 Kb M-1
